Hey, just so you know, these numbers are from paper PMC9911399.

measured_target: T1, RBFOX1 RRM RbFoxmut (Fox-RRM*) (Homo sapiens, UniProt Q9NWB1 109-208, R118D;E147R;N151S;E152T)
T1 sequence: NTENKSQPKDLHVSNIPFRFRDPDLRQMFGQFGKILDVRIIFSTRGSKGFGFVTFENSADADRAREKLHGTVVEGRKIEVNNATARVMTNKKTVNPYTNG
assay_comment: EMSA; HiTS-Eq, 1 nM pool, 10 min; buffer printed only for the single-RNA assays: 10 mM Tris pH 7.5, 150 mM NaCl, 3.4 mM EDTA, 0.001% NP-40, 30 C
stated_conditions: tags: His6 N-terminal (pET28a); label: 5' 32P
Whole data set: some 16,000 sequences, median “ka relative to ugcaugu” near 0.096, cut for the highest 2% near 0.35. The full list was thinned out, with the highest values kept by preference.
# binding signal listing for each entry below

Study these solved cases before continuing.
[
  {
    "binder": "GCAUCCG (DNA:RNA) RNA: GGGAGACCGGAAUUCAGAUUGUCCGCAUCCGUUAAAUCCCGUCGUAGCCACCA DNA 1: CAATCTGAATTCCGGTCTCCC DNA 2: TGGTGGCTACGACGGGATT",
    "binding signal": "0.351 KA relative to UGCAUGU"
  },
  {
    "binder": "GCAUCGC (DNA:RNA) RNA: GGGAGACCGGAAUUCAGAUUGUCCGCAUCGCUUAAAUCCCGUCGUAGCCACCA DNA 1: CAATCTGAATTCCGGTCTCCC DNA 2: TGGTGGCTACGACGGGATT",
    "binding signal": "0.443 KA relative to UGCAUGU"
  },
  {
    "binder": "CCUGUUG (DNA:RNA) RNA: GGGAGACCGGAAUUCAGAUUGUCCCCUGUUGUUAAAUCCCGUCGUAGCCACCA DNA 1: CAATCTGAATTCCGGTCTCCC DNA 2: TGGTGGCTACGACGGGATT",
    "binding signal": "0.136 KA relative to UGCAUGU"
  }
]

Find the recorded binding signal belonging to GGGACGG (DNA:RNA) RNA: GGGAGACCGGAAUUCAGAUUGUCCGGGACGGUUAAAUCCCGUCGUAGCCACCA DNA 1: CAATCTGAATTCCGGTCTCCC DNA 2: TGGTGGCTACGACGGGATT and report it.
0.0996 KA relative to UGCAUGU
